# ASSAY TARGET: T1, Human NKp46 antigen for immunization, screening, and testing (Kactus, NKP-HM146) (human, UniProt O76036 22-255)
# T1 construct: Bought protein; also called human NKp46 antigen protein; human NKp46 protein
# T1 sequence (O76036 other isoform, or with tags, fused parts or gaps limits assumed): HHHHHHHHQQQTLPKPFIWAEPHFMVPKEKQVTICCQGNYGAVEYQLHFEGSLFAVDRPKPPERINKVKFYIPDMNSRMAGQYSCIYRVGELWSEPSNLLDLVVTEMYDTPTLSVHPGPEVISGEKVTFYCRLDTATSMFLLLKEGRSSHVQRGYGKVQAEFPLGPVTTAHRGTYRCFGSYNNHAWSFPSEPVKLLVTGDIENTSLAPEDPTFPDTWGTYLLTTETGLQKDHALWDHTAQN
# PROTOCOL NOTES: ELISA, coated antigen, VHH supernatant, anti-Myc HRP
ASSAY METRIC: ratio of OD450 to negative control

Past entries and their recorded results:
{"columns": ["BINDER", "VALUE OBSERVED"],
 "data": [
  ["NKp46-PA24 VHH (his and c-Myc labels) (VHH, IPTG-induced E. coli supernatant used in the screening ELISA; also called NKp46-PA24 clone supernatant; not shown: his and c-Myc labels) VHH: QVQLVESGGGQVQAGGSLRLSCVASGRTYSIYGMGWFRQAPGKEREVVAAINWSSGHTYYADSVKGRFTISKDNAKNTHYLQMNSLKPEDTAVYYCAADSIYGLSFTVKDYDYWGQGTLVTVSS", "> 3"],
  ["NKp46-PC16 VHH (his and c-Myc labels) (VHH, IPTG-induced E. coli supernatant used in the screening ELISA; also called NKp46-PC16 clone supernatant; not shown: his and c-Myc labels) VHH: DVQLVESGGGLVQPGGSLRLSCAISGFTFSIVSMSWVRQAPGKGPERVSWINGDSSNTSYADSVKGRFTISRDNARNMLYLQMNSLKSEDTARYYCTTQNSHYDIRFGYWGQGTQVTVSS", "> 3"]
]}

Exercise: Given NKp46-PC11 VHH (his and c-Myc labels) (VHH, IPTG-induced E. coli supernatant used in the screening ELISA; also called NKp46-PC11 clone supernatant; not shown: his and c-Myc labels) VHH: DVQLVESGGGSVQAGGSLRLSCAPSPYSANSFSMAWFRQVPGKEREGIACIQAESGSTNVAPSVKGRFSISQDNAKNTLYLQMNNLKPEDTAMYYCAAFKRNVGGCELRPEHWRFWGQGTLVTVSS , state its recorded ratio of OD450 to negative control.
Key: > 3
